- test.target: SIRT1 (Homo sapiens)
- Sequence (Q96EB6 whole entry): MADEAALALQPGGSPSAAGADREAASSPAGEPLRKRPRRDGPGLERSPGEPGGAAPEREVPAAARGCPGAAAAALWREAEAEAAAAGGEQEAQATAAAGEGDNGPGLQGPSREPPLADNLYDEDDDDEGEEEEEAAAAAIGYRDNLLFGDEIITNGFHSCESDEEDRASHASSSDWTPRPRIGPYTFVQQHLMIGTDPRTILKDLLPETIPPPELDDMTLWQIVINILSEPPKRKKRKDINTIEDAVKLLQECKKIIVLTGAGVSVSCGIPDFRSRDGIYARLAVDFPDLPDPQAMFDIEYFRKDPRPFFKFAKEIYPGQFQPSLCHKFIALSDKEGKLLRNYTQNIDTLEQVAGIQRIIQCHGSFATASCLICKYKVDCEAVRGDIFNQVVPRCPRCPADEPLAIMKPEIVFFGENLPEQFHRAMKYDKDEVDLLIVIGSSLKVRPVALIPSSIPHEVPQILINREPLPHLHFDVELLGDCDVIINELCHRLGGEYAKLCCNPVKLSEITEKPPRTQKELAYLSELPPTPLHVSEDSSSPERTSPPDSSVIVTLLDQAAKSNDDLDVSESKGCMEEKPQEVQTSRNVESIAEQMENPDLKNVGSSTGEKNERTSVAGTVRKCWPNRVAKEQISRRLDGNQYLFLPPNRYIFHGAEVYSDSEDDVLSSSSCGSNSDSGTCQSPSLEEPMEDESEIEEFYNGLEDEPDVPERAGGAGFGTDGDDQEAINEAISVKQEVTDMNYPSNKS
- protocol.details: TAMRA based mass spectrometry assay of SIRT1 activity
- Assay type: biochemical
- setup.conditions: TAMRA assay; concentration giving 150% activation of SIRT1
value.type: TAMRA EC1.5 (μM)

Known TAMRA EC1.5 (μM) results, listed for orientation:
>  <compound>
O=C(Nc1ccnc(OCC(O)CO)c1)c1cnc2ccc(-c3ccccc3Cl)nn12 (stereo not shown) [Compound 283]

>  <TAMRA EC1.5 (μM)>
A (EC1.5<1 μM)

$$$$
>  <compound>
O=C(Nc1cc(O)ncn1)c1cnn2ccc(-c3ccccc3OC(F)(F)F)nc12 [Compound 711]

>  <TAMRA EC1.5 (μM)>
A (EC1.5<1 μM)

$$$$
>  <compound>
Cc1cccnc1NC(=O)c1cnn2ccc(-c3ccccc3OC(F)(F)F)nc12 [Compound 701]

>  <TAMRA EC1.5 (μM)>
B (EC1.5 1-25 μM)

$$$$
>  <compound>
N#Cc1ccccc1-c1ccc2ncc(NC(=O)c3ccccn3)n2n1 [Compound 328]

>  <TAMRA EC1.5 (μM)>
A (EC1.5<1 μM)

$$$$
>  <compound>
CC(C)c1csc(C(=O)Nc2cnn3ccc(-c4ccccc4C(F)(F)F)nc23)n1 [Compound 808]

>  <TAMRA EC1.5 (μM)>
A (EC1.5<1 μM)

$$$$

The compound listed as Cc1nc2ccc(-c3cccc(OC[C@H](O)CO)c3)nn2c1C(=O)Nc1cccnn1 [Compound 597] shows TAMRA EC1.5 (μM) equal to B (EC1.5 1-25 μM)

Briefly, TAMRA EC1.5 (μM) measured for Cc1nc(NC(=O)c2cnn3ccc(-c4ccccc4OC(F)(F)F)nc23)sc1C [Compound 614] : A (EC1.5<1 μM)

Cited source: patent US9957271B2
